Where these numbers come from: patent US20190225692A1

# Assay target: T1, HLA-A2/E7 (11-19) tetramer (human; HPV 16)
# T1 construct: also called E7(11-19) peptide-MHC tetramer; E7 (11-19)-loaded tetramer
# Experiment notes: tetramer flow cytometry; transfected 1:1 CD4+ and CD4+/CD8+ Jurkat-derived cells;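 further: cells transiently transfected with TCR plasmids, stained 48 h later with HLA-A*02:01 peptide-MHC tetramer plus anti-CD8 antibody, read by flow cytometry to assess CD8-independent tetramer binding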
Endpoint label: % cells in E7 tet+/CD8- quadrant
Just so you know, I need the unit written after the number.

Solved cases (2 shown):
Binder	Endpoint label	Assay result
TCR 35 (codon optimized, cysteine modified version) (TCR, V domains shown) V domain 1: KDQVFQPSTVASSEGAVVEIFCNHSVSNAYNFFWYLHFPGCAPRLLVKGSKPSQQGRYNMTYERFSSSLLILQVREADAAVYYCAVAGDYKLSFGAGTTVTVRA V domain 2: DSGVTQTPKHLITATGQRVTLRCSPRSGDLSVYWYQQSLDQGLQFLIQYYNGEERAKGNILERFSAQQFPDLHSELNLSSLELGDSALYFCASTTSGDSSYNEQFFGPGTRLTVLE	% cells in E7 tet+/CD8- quadrant	7.18%
TCR 45 (codon optimized, cysteine modified version) (TCR, V domains shown) V domain 1: GQQVMQIPQYQHVQEGEDFTTYCNSSTTLSNIQWYKQRPGGHPVFLIQLVKSGEVKKQKRLTFQFGEAKKNSSLHITATQTTDVGTYFCAGSSGAGSYQLTFGKGTKLSVIP V domain 2: GAGVSQSPSNKVTEKGKDVELRCDPISGHTALYWYRQRLGQGLEFLIYFQGNSAPDKSGLPSDRFSAERTGESVSTLTIQRTQQEDSAVYLCASSLYLGTTGELFFGEGSRLTVLE	% cells in E7 tet+/CD8- quadrant	16.9%

Please find the next binder below.
Give the measured % cells in E7 tet+/CD8- quadrant of TCR 50 (codon optimized, cysteine modified version) (TCR, V domains shown) V domain 1: GEDVEQSLFLSVREGDSSVINCTYTDSSSTYLYWYKQEPGAGLQLLTYIFSNMDMKQDQRLTVLLNKKDKHLSLRIADTQTGDSAIYFCAESPPGTYKYIFGTGTRLKVLA V domain 2: DSGVTQTPKHLITATGQRVTLRCSPRSGDLSVYWYQQSLDQGLQFLIHYYNGEERAKGNILERFSAQQFPDLHSELNLSSLELGDSALYFCASSATRDAYGYTFGSGTRLTVVE .
0.25%
